- testedOn: GABA-A receptor; anion channel (Bos taurus) (UniProt P10063+P08220+P20237+P08219+P10064+P22300)
- procedureText: GABA ratio (where GABA ratio = IC50 (compound) / IC50 (compound + 10 uM GABA)).
- Format: protein-complex assay
readoutLabel: GR
Quick one: just the number, no unit, thanks!

Q: Return reported GR; argument: `O=c1oc2ccccc2c2nc(-c3cccs3)nn12`
Result: 0.98

Q: Return reported GR; argument: `COc1ccc(-c2nc3c4cc(Cl)ccc4oc(=O)n3n2)cc1`
Result: 0.5

Q: Return reported GR; argument: `O=c1oc2ccc(Cl)cc2c2nc(-c3ccsc3)nn12`
Result: 1.02

Q: Return reported GR; argument: `Cc1ccc2oc(=O)n3nc(-c4ccccc4F)nc3c2c1`
Result: 0.84

Q: Return reported GR; argument: `CCOC(=O)c1nc2c3ccccc3oc(=O)n2n1`
Result: 0.81

Q: Return reported GR; argument: `O=c1oc2ccc(Cl)cc2c2nc(-c3ccccc3)nn12`
Result: 0.78

Q: Return reported GR; argument: `O=c1oc2ccc(Cl)cc2c2nc(-c3c(F)cccc3F)nn12`
Result: 0.76

Q: Return reported GR; argument: `O=c1oc2ccc(Cl)cc2c2nc(-c3ccccc3F)nn12`
Result: 0.9

Q: Return reported GR; argument: `COc1ccc(-c2nc3c4ccccc4oc(=O)n3n2)cc1`
Result: 1.31

Q: Return reported GR; argument: `O=c1oc2ccc(Cl)cc2c2nc(-c3cccc(F)c3F)nn12`
Result: 1.11

Q: Return reported GR; argument: `O=c1oc2ccccc2c2nc(-c3ccccc3F)nn12`
Result: 0.95

Q: Return reported GR; argument: `O=c1oc2ccc(Cl)cc2c2nc(-c3ccco3)nn12`
Result: 0.9

Q: Return reported GR; argument: `O=c1oc2ccccc2c2nc(-c3ccco3)nn12`
Result: 0.84

Q: Return reported GR; argument: `O=c1oc2ccccc2c2nc(-c3ccccc3)nn12`
Result: 0.98

Q: Return reported GR; argument: `COc1ccc2oc(=O)n3nc(-c4ccccc4F)nc3c2c1`
Result: 1.13

Q: Return reported GR; argument: `O=c1oc2ccc(Cl)cc2c2nc(-c3ccoc3)nn12`
Result: 0.8

Q: Return reported GR; argument: `CCOC(=O)c1nc2c3cc(Cl)ccc3oc(=O)n2n1`
Result: 1.2

Q: Return reported GR; argument: `O=c1oc2ccc(Cl)cc2c2nc(-c3cccs3)nn12`
Result: 0.8
